Assay: Cmax in mouse at 10 mg/kg, po
Type: ADME, organism-based
Parameters: dose 10 mg/kg, route oral
Conditions: in vivo
Measure: Cmax (ng/mL)

a. CCCCc1nc(C(C)C)c(Cc2nc(C(C)(C)C)no2)c(=O)n1Cc1ccc(-c2ccccc2-c2noc(=O)[nH]2)cc1
b. CCCCc1nc(C)c(Cc2nc(C(C)(C)C)no2)c(=O)n1Cc1ccc(-c2ccccc2-c2noc(=O)[nH]2)cc1
Q. Lowest Cmax? choose a or b Lab log: write the label of the selected item as the result.
A. a

====

Target: CYP2C9 (Homo sapiens, UniProt P11712)
Sequence (P11712 whole entry): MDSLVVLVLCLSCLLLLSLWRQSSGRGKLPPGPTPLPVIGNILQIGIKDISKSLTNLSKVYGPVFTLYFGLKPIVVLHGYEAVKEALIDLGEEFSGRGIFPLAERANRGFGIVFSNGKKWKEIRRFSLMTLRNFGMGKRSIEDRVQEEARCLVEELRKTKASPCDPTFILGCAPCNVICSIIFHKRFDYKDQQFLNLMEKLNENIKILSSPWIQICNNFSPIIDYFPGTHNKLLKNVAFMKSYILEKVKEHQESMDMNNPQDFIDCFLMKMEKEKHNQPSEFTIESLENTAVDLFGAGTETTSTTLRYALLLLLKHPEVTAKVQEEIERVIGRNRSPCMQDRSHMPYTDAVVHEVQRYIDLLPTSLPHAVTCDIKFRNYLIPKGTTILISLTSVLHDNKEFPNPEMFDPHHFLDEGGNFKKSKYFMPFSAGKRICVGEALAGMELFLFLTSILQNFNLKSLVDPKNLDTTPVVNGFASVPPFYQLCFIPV
Assay: Inhibition of CYP2C9 (unknown origin) assessed as enzyme remaining activity at 10 uM
Type: ADME
Details: read-out: INH
Measure: activity at 10 µM (%)

a. CCCCc1nc(C(C)C)c(Cc2nc(C(C)(C)C)no2)c(=O)n1Cc1ccc(-c2ccccc2-c2noc(=O)[nH]2)cc1
b. CCCCc1nc(C)c(Cc2nc(C(C)(C)C)no2)c(=O)n1Cc1ccc(-c2ccccc2-c2noc(=O)[nH]2)cc1
Q. Lowest activity at 10 µM? choose a or b Lab log: write the label of the selected item as the result.
A. a
(a: 33%, b: 57%)

====

Assay: Half life in mouse at 10 mg/kg, po
Assay type: ADME, organism-based
Settings: in vivo
Measure: half-life (h)

A. CCCCc1nc(C(C)C)c(Cc2nc(C(C)(C)C)no2)c(=O)n1Cc1ccc(-c2ccccc2-c2noc(=O)[nH]2)cc1
B. CCCCc1nc(C)c(Cc2nc(C(C)(C)C)no2)c(=O)n1Cc1ccc(-c2ccccc2-c2noc(=O)[nH]2)cc1
Q. Would you let me know which has the greater half-life value, A or B ? Lab log: write the label of the selected item as the result.
A. B

====

Assay: Stability in human liver microsomes assessed as parent compound remaining at 30 mins
Assay type: ADME, Microsome
Settings: read-out: Stability
Measure: remaining at 0.5 h (%)

CCCCc1nc(C(C)C)c(Cc2nc(C(C)(C)C)no2)c(=O)n1Cc1ccc(-c2ccccc2-c2noc(=O)[nH]2)cc1    12
CCCCc1nc(C)c(Cc2nc(C(C)(C)C)no2)c(=O)n1Cc1ccc(-c2ccccc2-c2noc(=O)[nH]2)cc1    17

====

Experiment: AUClast in rat at 10 mg/kg, po
Format: ADME, organism-based
Set-up: dose 10 mg/kg, time 0 - last, route oral
Details: in vivo
Measure: AUC(0-t) (ng·h/mL)
// return numeric value only (unit: ng·h/mL, not printed)

Q. Suppose we examine the molecule CCCCc1nc(C)c(Cc2nc(C(C)(C)C)no2)c(=O)n1Cc1ccc(-c2ccccc2-c2noc(=O)[nH]2)cc1 ; what AUC(0-t) value has been reported?
A. 889

====

Target: CYP1A2 (Homo sapiens, UniProt P05177)
Sequence (P05177 whole entry): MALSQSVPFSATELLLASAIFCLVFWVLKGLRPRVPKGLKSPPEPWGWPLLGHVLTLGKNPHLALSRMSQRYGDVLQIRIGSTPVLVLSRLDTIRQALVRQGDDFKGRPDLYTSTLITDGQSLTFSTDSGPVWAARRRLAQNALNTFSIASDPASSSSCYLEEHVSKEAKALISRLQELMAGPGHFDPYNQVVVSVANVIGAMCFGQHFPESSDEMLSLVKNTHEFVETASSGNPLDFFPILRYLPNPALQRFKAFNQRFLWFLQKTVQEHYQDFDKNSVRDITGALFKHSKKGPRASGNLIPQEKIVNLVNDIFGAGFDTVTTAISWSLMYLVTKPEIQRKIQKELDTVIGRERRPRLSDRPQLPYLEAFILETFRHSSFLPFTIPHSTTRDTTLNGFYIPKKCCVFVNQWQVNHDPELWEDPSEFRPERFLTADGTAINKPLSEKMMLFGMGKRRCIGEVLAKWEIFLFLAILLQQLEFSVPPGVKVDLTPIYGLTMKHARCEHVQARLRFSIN
Experiment: Inhibition of CYP1A2 (unknown origin) assessed as enzyme remaining activity at 10 uM
Assay type: ADME
Settings: read-out: INH
Measure: activity at 10 µM (%)

CCCCc1nc(C)c(Cc2nc(C(C)(C)C)no2)c(=O)n1Cc1ccc(-c2ccccc2-c2noc(=O)[nH]2)cc1    88
CCCCc1nc(C(C)C)c(Cc2nc(C(C)(C)C)no2)c(=O)n1Cc1ccc(-c2ccccc2-c2noc(=O)[nH]2)cc1    92
